Examples of molecules with documented log10 of IC50 follow.
target: human cloned 5-HT2C receptor (Homo sapiens); construct: expressed in transfected cells; host or cells: CHO cells; test: In vitro binding affinity for 5-HT2C receptor (radioligand binding); details: human cloned 5-HT2C receptor, radioligand binding; read-out: h-5HT2C (converted)
readout_kind: log10 of IC50 (log10 of the value in nM)

>  <molecule>
OCCC1CCN(CC2CC3=C(O2)c2cc(F)ccc2Cc2ccccc23)CC1 (stereo not drawn)

>  <log10 of IC50>
0.10

$$$$
>  <molecule>
CCNCC1CC2=C(O1)c1cc(F)ccc1Sc1ccccc12 (stereo not drawn)

>  <log10 of IC50>
0.10

$$$$
>  <molecule>
COc1ccc(NC(=O)N2CCN(CC3CC4=C(O3)c3cc(F)ccc3Oc3ccccc34)CC2)cc1 (stereo not drawn)

>  <log10 of IC50>
1.50

$$$$
>  <molecule>
NCC1CC2=C(O1)c1cc(F)ccc1Cc1ccccc12 (stereo not drawn)

>  <log10 of IC50>
-0.10

$$$$
>  <molecule>
O=C(NCc1ccccc1)N1CCN(CC2CC3=C(O2)c2cc(F)ccc2Cc2ccccc23)CC1 (stereo not drawn)

>  <log10 of IC50>
2.00

$$$$
>  <molecule>
CN(C)CC1CC2=C(O1)c1ccsc1Cc1ccccc12 (stereo not drawn)

>  <log10 of IC50>
0.90

$$$$
>  <molecule>
CN(C)CC1CC2=C(O1)c1ccccc1Cc1ccccc12 (single isomer, unassigned) [Compound 23]

>  <log10 of IC50>
1.20

$$$$
>  <molecule>
O=S(=O)(Cc1ccccc1)N1CCN(CC2CC3=C(O2)c2cc(F)ccc2Cc2ccccc23)CC1 (stereo not drawn)

>  <log10 of IC50>
2.30

$$$$
>  <molecule>
CCCn1c2c(c3ccccc31)C1=C(CC(CNC)O1)c1ccccc1S2 (stereo not drawn)

>  <log10 of IC50>
1.00

$$$$
>  <molecule>
CNCC1CC2=C(O1)c1cc(Br)ccc1Cc1ccccc12 (stereo not drawn)

>  <log10 of IC50>
-0.10

$$$$
>  <molecule>
CN(Cc1nnn[nH]1)C[C@H]1CC2=C(O1)c1cc(F)ccc1Cc1ccccc12

>  <log10 of IC50>
0.40

$$$$
>  <molecule>
CCS(=O)(=O)N(C)CC1CC2=C(O1)c1cc(F)ccc1Cc1ccccc12 (stereo not drawn)

>  <log10 of IC50>
1.00

$$$$
>  <molecule>
OCCN1CCN(CC2CC3=C(O2)c2cc(F)ccc2Sc2ccccc23)CC1 (stereo not drawn)

>  <log10 of IC50>
1.00

$$$$
>  <molecule>
CN(CC(N)=O)C[C@H]1CC2=C(O1)c1cc(F)ccc1Cc1ccccc12

>  <log10 of IC50>
0.60

$$$$
>  <molecule>
CNCC1CC2=C(O1)c1ccccc1C(C)c1ccccc12 (stereo not drawn) [Compound 10]

>  <log10 of IC50>
1.40

$$$$
>  <molecule>
O=C(NC1CCCCC1)N1CCN(CC2CC3=C(O2)c2cc(F)ccc2Oc2ccccc23)CC1 (stereo not drawn)

>  <log10 of IC50>
1.90

$$$$
>  <molecule>
OC1CCN(CC2CC3=C(O2)c2cc(F)ccc2Cc2ccccc23)C1 (stereo not drawn)

>  <log10 of IC50>
-0.10

$$$$
>  <molecule>
CCNCC1CC2=C(O1)c1cc(Br)ccc1Cc1ccccc12 (stereo not drawn)

>  <log10 of IC50>
0.10

$$$$

###

Target: human cloned 5-HT2C receptor (Homo sapiens)
Construct: expressed in transfected cells; host or cells: CHO cells
Sequence (P28335 33-458): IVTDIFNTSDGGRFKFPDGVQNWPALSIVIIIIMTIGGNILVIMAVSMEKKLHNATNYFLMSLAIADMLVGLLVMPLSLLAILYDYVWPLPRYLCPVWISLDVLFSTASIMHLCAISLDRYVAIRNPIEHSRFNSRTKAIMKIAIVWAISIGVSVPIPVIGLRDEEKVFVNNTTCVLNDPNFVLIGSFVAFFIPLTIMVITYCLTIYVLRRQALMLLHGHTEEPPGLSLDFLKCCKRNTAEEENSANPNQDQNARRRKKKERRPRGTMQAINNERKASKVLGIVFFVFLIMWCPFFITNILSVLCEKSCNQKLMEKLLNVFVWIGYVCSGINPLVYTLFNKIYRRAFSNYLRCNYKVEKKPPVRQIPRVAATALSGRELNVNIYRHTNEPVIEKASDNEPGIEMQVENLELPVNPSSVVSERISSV
Assay: In vitro binding affinity for 5-HT2C receptor (radioligand binding)
Settings: human cloned 5-HT2C receptor, radioligand binding; read-out: h-5HT2C (converted)
Procedure: During the incubation, the radioligands bind to the receptor. When equilibrium of binding is reached, the receptor bound radioactivity is separated from the non-bound radioactivity, and the receptor bound activity is counted. The interaction of the test compounds with the receptors is assessed in competition binding experiments. Various concentrations of the test compound are added to the incubation mixture containing the tissue preparation and the radioligand. […]
Threshold check on IC50: strictly below 6 nM is TRUE; on or above 6 nM is FALSE.

>  <molecule>
CNCC1CC2=C(O1)c1cc(F)ccc1Sc1ccccc12 (single isomer, unassigned) [Compound 14]

>  <class>
TRUE

$$$$
>  <molecule>
OC1CCCN(CC2CC3=C(O2)c2cc(F)ccc2Cc2ccccc23)C1 (centres unmarked)

>  <class>
TRUE

$$$$
>  <molecule>
CCS(=O)(=O)N1CCN(CC2CC3=C(O2)c2cc(F)ccc2Cc2ccccc23)CC1 (centres unmarked)

>  <class>
FALSE

$$$$
>  <molecule>
C=CCn1c2c(c3ccccc31)C1=C(CC(CNC)O1)c1ccccc1S2 (centres unmarked)

>  <class>
FALSE

$$$$
>  <molecule>
CN(C)CC1CC2=C(O1)c1ccccc1Oc1ccccc12 (centres unmarked)

>  <class>
FALSE

$$$$
>  <molecule>
CNCC1CC2=C(O1)c1cc(F)ccc1Sc1ccccc12 (single isomer, unassigned) [Compound 13]

>  <class>
TRUE

$$$$
>  <molecule>
O=C(NCc1ccccc1)N1CCN(CC2CC3=C(O2)c2cc(F)ccc2Oc2ccccc23)CC1 (centres unmarked)

>  <class>
FALSE

$$$$
>  <molecule>
O=C(OCc1ccccc1)N1CCN(CC2CC3=C(O2)c2cc(F)ccc2Cc2ccccc23)CC1 (centres unmarked)

>  <class>
FALSE

$$$$

###

Target: human cloned 5-HT2C receptor (Homo sapiens, UniProt P28335)
Construct: expressed in transfected cells; host or cells: CHO cells
Assay: In vitro binding affinity for 5-HT2C receptor (radioligand binding)
Details: human cloned 5-HT2C receptor, radioligand binding; read-out: h-5HT2C (converted)
Description: During the incubation, the radioligands bind to the receptor. When equilibrium of binding is reached, the receptor bound radioactivity is separated from the non-bound radioactivity, and the receptor bound activity is counted. The interaction of the test compounds with the receptors is assessed in competition binding experiments. Various concentrations of the test compound are added to the incubation mixture containing the tissue preparation and the radioligand. […]

>  <compound>
OCCNCC1CC2=C(O1)c1cc(Br)ccc1Cc1ccccc12 (stereo not drawn) [Compound 20]

>  <unit_name>
nM

>  <IC50>
1.58

$$$$
>  <compound>
CCOC(=O)N1CCN(CC2CC3=C(O2)c2cc(F)ccc2Cc2ccccc23)CC1 (stereo not drawn) [Compound 61]

>  <unit_name>
nM

>  <IC50>
20

$$$$
>  <compound>
C=C1c2ccccc2C2=C(OC(CNC)C2)c2ccccc21 (stereo not drawn) [Compound 11]

>  <unit_name>
nM

>  <IC50>
20

$$$$
>  <compound>
CN(C)CC1CC2=C(O1)c1ccccc1N(C)c1ccccc12 (stereo not drawn) [Compound 29]

>  <unit_name>
nM

>  <IC50>
126

$$$$
>  <compound>
O=C(Nc1ccc(F)cc1)N1CCN(CC2CC3=C(O2)c2cc(F)ccc2Oc2ccccc23)CC1 (stereo not drawn) [Compound 86]

>  <unit_name>
nM

>  <IC50>
39.8

$$$$
>  <compound>
CNCC1CC2=C(O1)c1cc(F)ccc1Oc1ccccc12 (stereo not drawn) [Compound 12]

>  <unit_name>
nM

>  <IC50>
7.94

$$$$
>  <compound>
CS(=O)(=O)N1CCN(CC2CC3=C(O2)c2cc(F)ccc2Cc2ccccc23)CC1 (stereo not drawn) [Compound 44]

>  <unit_name>
nM

>  <IC50>
50.1

$$$$
>  <compound>
OCCNCC1CC2=C(O1)c1cc(F)ccc1Cc1ccccc12 (stereo not drawn) [Compound 19]

>  <unit_name>
nM

>  <IC50>
1

$$$$
>  <compound>
CNC[C@@H]1CC2=C(O1)c1cc(F)ccc1Cc1ccccc12 [Compound 4]

>  <unit_name>
nM

>  <IC50>
0.631

$$$$
